Where do these numbers come from? They come from patent EP4725490A1.

assay overview: Solubility of compound A in various solvents (standard solubility determination)
Format: physicochemical
condition notes: organic solvent or mixture; Toluene; 25 °C

structure as smiles: CC(C)N1Cc2cc(C(F)(F)F)ncc2-c2cnc(NCc3c(F)ccc4c3CCO4)n3cnc(c23)C1=O
readout units: µg/mL
solubility: 3300

* * *

assay overview: Solubility of compound A in aqueous buffer
Format: physicochemical
condition notes: pH 1.2, aqueous buffer, thermodynamic from solid, pH of 1.2 to 7.4, 37 °C/24 h

structure as smiles: CC(C)N1Cc2cc(C(F)(F)F)ncc2-c2cnc(NCc3c(F)ccc4c3CCO4)n3cnc(c23)C1=O
solubility at 24 h: 0.08 to 0.39 µg/mL
